meta.source: patent US20240174690A1

Test system: AsPC-1 cells
Test: AsPC-1 CTG proliferation assay (120 h) (pancreatic cancer, G12D)
Type: cell-based
Settings: Homo sapiens, ASPC1
pIC50: −log10 of the molar value.
Criterion: pIC50 meeting or surpassing 6. Met: class 1. Not met: class 0.

Asked: Decide: pIC50 of `C[C@H](Oc1cc(N2C[C@@H]3[C@@H](N)[C@@H]3C2)nc(-c2noc3c2CCC[C@@]32CCCc3sc(N)c(C#N)c32)n1)[C@@H]1CCCN1C` >= 6?
Given back: class 0

Asked: How about this compound: `C[C@H](Oc1cc(N2CCNC3(CCC3)C2)nc(-c2onc3c2CCC[C@@]32CCCc3sc(N)c(C#N)c32)n1)[C@@H]1CCCN1C`
Given back: class 1

Asked: How about this compound: `C[C@H](Oc1cc(-c2cccc(C(N)=O)c2)nc(-c2noc3c2CCC[C@@]32CCCc3sc(N)c(C#N)c32)n1)[C@@H]1CCCN1C`
Given back: class 0

Asked: And for `C[C@H]1CNCCCN1c1cc(-c2ccn(C)n2)nc(-c2noc3c2CCC[C@@]32CCCc3sc(N)c(C#N)c32)n1` ?
Given back: class 0

Asked: # repeat for `C[C@H](Oc1cc(-c2cncnc2)nc(-c2noc3c2CCC[C@@]32CCCc3sc(N)c(C#N)c32)n1)[C@@H]1CCCN1C`
Given back: class 0

Asked: Request: `C[C@H](Oc1cc(-c2ccn(C3COC3)n2)nc(-c2noc3c2CCC[C@@]32CCCc3sc(N)c(C#N)c32)n1)[C@@H]1CCCN1C`
Given back: class 0

Asked: Entry to check: `C[C@H](Oc1cc(-c2ccn(C3COC3)n2)nc(-c2onc3c2CCC[C@@]32CCCc3sc(N)c(C#N)c32)n1)[C@@H]1CCCN1C`
Given back: class 0

Asked: Repeat for the following compound: `C[C@H](Oc1cc(N2CC[C@H](N3CCCCC3)C2)nc(-c2noc3c2CCC[C@@]32CCCc3sc(N)c(C#N)c32)n1)[C@@H]1CCCN1C`
Given back: class 1

Asked: Further, for `C[C@H](Oc1cc(N2C[C@H](C)N[C@@H](C)C2)nc(-c2onc3c2CCC[C@@]32CCCc3sc(N)c(C#N)c32)n1)[C@@H]1CCCN1C` ?
Given back: class 0

Asked: // same read-out, input: `C[C@@H]1CN(c2cc(O[C@@H](C)[C@@H]3CCCN3C)nc(-c3noc4c3CCC[C@@]43CCCc4sc(N)c(C#N)c43)n2)CCN1`
Given back: class 0

Asked: Now give it for `C[C@H](Oc1cc(N2CCNC3(CC3)C2)nc(-c2noc3c2CCC[C@@]32CCCc3sc(N)c(C#N)c32)n1)[C@@H]1C[C@@H](F)CN1C` too.
Given back: class 1

Asked: Consider next the compound `C[C@H](Oc1cc(-c2ccn(Cc3ncco3)n2)nc(-c2noc3c2CCC[C@@]32CCCc3sc(N)c(C#N)c32)n1)[C@@H]1CCCN1C` in the same way.
Given back: class 0

Asked: Next compound: C[C@H](Oc1cc(N2CCC(C#N)C2)nc(-c2noc3c2CCC[C@@]32CCCc3sc(N)c(C#N)c32)n1)[C@@H]1CCCN1C (stereo partly shown)
Given back: class 0

Asked: Same read-out for `Cc1cn(-c2cc(O[C@@H](C)[C@@H]3CCCN3C)nc(-c3noc4c3CCC[C@@]43CCCc4sc(N)c(C#N)c43)n2)nn1` ?
Given back: class 0

Asked: How about this compound: `C[C@H](Oc1cc(N2CCNC[C@]23CCOC3)nc(-c2noc3c2CCC[C@@]32CCCc3sc(N)c(C#N)c32)n1)[C@@H]1CCCN1C`
Given back: class 1

Asked: Now the same for `C[C@H](Oc1cc(-n2cncn2)nc(-c2noc3c2CCC[C@@]32CCCc3sc(N)c(C#N)c32)n1)[C@@H]1CCCN1C`
Given back: class 0

Asked: And the next one, `C[C@H](Oc1cc(-c2cnn(C)n2)nc(-c2noc3c2CCC[C@@]32CCCc3sc(N)c(C#N)c32)n1)[C@@H]1CCCN1C` ?
Given back: class 0
